biological target: LRP1 cluster 4-Fc chimeric proteins; assay: ELISA binding test of biotin-labeled peptides; conditions: biotinylated peptide, SA-HRP detection, absorbance at 450 nm, n = 4
Square brackets hold non-standard residues; d marks the D form. * marks the point of attachment. Biotin = O=C1N[C@H]2[C@H](CS[C@H]2CCCCC(=O)*)N1; Nle = CCCC[C@H](N)C(=O)O
Measure: EC50 (nM)

Substance	Unit symbol	Reported
Ac-K(Biotin)GTPCTYKY[Nle]LAE[Nle]C-OH (cysteine pairing not given here) [Sequence 45]	nM	10.5
